System: Escherichia coli K-12 ML 1629
Experiment: Minimum inhibitory concentration, serial dilution on nutrient agar
Type: cell-based
Settings: K12ML1629, nutrient agar, 37° C., 18 hours incubation, read-out: MIC
observation_type: MIC (µg/mL)
Report as a plain number; the unit µg/mL is understood.

Example results:
molecule: CNC[C@@H]1CC[C@@H](N)[C@@H](O[C@H]2C[C@@H](O[C@H]3O[C@H](CO)[C@@H](O)[C@H](N)[C@H]3O)[C@H](N)C[C@@H]2N)O1 [TrideoxyMKMB, 5,3',4'-trideoxy-6'-N-methylkanamycin B]
quantity_unit: µg/mL
MIC: 25

molecule: NCC[C@H](O)C(=O)N[C@@H]1C[C@H](N)[C@@H](O[C@H]2O[C@H](CN)CC[C@H]2N)C[C@H]1O[C@H]1O[C@H](CO)[C@@H](O)[C@H](N)[C@H]1O [AHB-trideoxyKMB]
quantity_unit: µg/mL
MIC: 1.56

molecule: C[C@H]1O[C@H](O[C@@H]2C[C@H](O[C@H]3O[C@H](CN)CC[C@H]3N)[C@@H](N)C[C@H]2NC(=O)[C@@H](O)CCN)[C@H](O)[C@@H](N)[C@@H]1O [AHB-tetradeoxyKMB]
quantity_unit: µg/mL
MIC: 0.78

molecule: NCC(O)C(=O)N[C@@H]1C[C@H](N)[C@@H](O[C@H]2O[C@H](CN)CC[C@H]2N)C[C@H]1O[C@H]1O[C@H](CO)[C@@H](O)[C@H](N)[C@H]1O (stereo partly shown) [AHP-trideoxyKMB]
quantity_unit: µg/mL
MIC: 3.13

molecule: CNC[C@@H]1CC[C@@H](N)[C@@H](O[C@H]2C[C@@H](O[C@H]3O[C@H](CO)[C@@H](O)[C@H](N)[C@H]3O)[C@H](NC(=O)[C@@H](O)CCN)C[C@@H]2N)O1 [AHB-trideoxyMKMB]
quantity_unit: µg/mL
MIC: 0.78

molecule: C[C@H]1O[C@H](O[C@@H]2C[C@H](O[C@H]3O[C@H](CN)CC[C@H]3N)[C@@H](N)C[C@H]2N)[C@H](O)[C@@H](N)[C@@H]1O [TetradeoxyKMB, 5,3',4',6"-tetradeoxykanamycin B]
quantity_unit: µg/mL
MIC: 6.25

**Query** Give me measured MIC, please, for this molecule: NCC[C@H](O)C(=O)N[C@@H]1C[C@H](N)[C@@H](O[C@H]2O[C@H](CN)CC[C@H]2N)[C@H](O)[C@H]1O[C@H]1O[C@H](CO)[C@@H](O)[C@H](N)[C@H]1O [Habekacin, reference compound]
**Result** 3.13

* * *

Test system: Serratia SOU
Test: Minimum inhibitory concentration, serial dilution on nutrient agar
Type: cell-based
Settings: 37° C., 18 hours incubation
observation_type: MIC

Solved entries:
compound: NCC[C@H](O)C(=O)N[C@@H]1C[C@H](N)[C@@H](O[C@H]2O[C@H](CN)CC[C@H]2N)[C@H](O)[C@H]1O[C@H]1O[C@H](CO)[C@@H](O)[C@H](N)[C@H]1O [Habekacin, reference compound]
MIC: > 100 µg/mL
--
compound: C[C@H]1O[C@H](O[C@@H]2C[C@H](O[C@H]3O[C@H](CN)CC[C@H]3N)[C@@H](N)C[C@H]2N)[C@H](O)[C@@H](N)[C@@H]1O [TetradeoxyKMB, 5,3',4',6"-tetradeoxykanamycin B]
MIC: > 100 µg/mL

**Query** Please look at this compound and report its MIC: CNC[C@@H]1CC[C@@H](N)[C@@H](O[C@H]2C[C@@H](O[C@H]3O[C@H](CO)[C@@H](O)[C@H](N)[C@H]3O)[C@H](NC(=O)[C@@H](O)CCN)C[C@@H]2N)O1 [AHB-trideoxyMKMB]
**Result** 25 µg/mL

* * *

In what follows, each item is paired with its MIC for Providencia 2991.
Provide only the numeric value, understood in µg/mL.

compound: NCC[C@H](O)C(=O)N[C@@H]1C[C@H](N)[C@@H](O[C@H]2O[C@H](CN)CC[C@H]2N)[C@H](O)[C@H]1O[C@H]1O[C@H](CO)[C@@H](O)[C@H](N)[C@H]1O [Habekacin, reference compound]
observation_type: MIC
assay_value: 50
//
compound: CNC[C@@H]1CC[C@@H](N)[C@@H](O[C@H]2C[C@@H](O[C@H]3O[C@H](CO)[C@@H](O)[C@H](N)[C@H]3O)[C@H](NC(=O)[C@@H](O)CCCN)C[C@@H]2N)O1
observation_type: MIC
assay_value: 25

**Query** Query MIC for NCC[C@H](O)C(=O)N[C@@H]1C[C@H](N)[C@@H](O[C@H]2O[C@H](CN)CC[C@H]2N)C[C@H]1O[C@H]1O[C@H](CO)[C@@H](O)[C@H](N)[C@H]1O
**Result** 6.25

* * *

Test system: Providencia Pv 16
Experiment: Minimum inhibitory concentration, serial dilution on nutrient agar
Format: cell-based
Conditions: PV16, 37° C., 18 hours incubation
Each record here notes measured MIC.
A number alone suffices; assume µg/mL.

compound: NCC[C@H](O)C(=O)N[C@@H]1C[C@H](N)[C@@H](O[C@H]2O[C@H](CN)CC[C@H]2N)C[C@H]1O[C@H]1O[C@H](CO)[C@@H](O)[C@H](N)[C@H]1O [AHB-trideoxyKMB]
assay_value: 12.5

**Query** For the compound CNC[C@@H]1CC[C@@H](N)[C@@H](O[C@H]2C[C@@H](O[C@H]3O[C@H](CO)[C@@H](O)[C@H](N)[C@H]3O)[C@H](NC(=O)C(O)CN)C[C@@H]2N)O1 (stereo partly drawn) [AHP-trideoxyMKMB] , give its measured MIC value.
**Result** 50

**Query** Return reported MIC. Input compound: C[C@H]1O[C@H](O[C@@H]2C[C@H](O[C@H]3O[C@H](CN)CC[C@H]3N)[C@@H](N)C[C@H]2NC(=O)[C@@H](O)CCN)[C@H](O)[C@@H](N)[C@@H]1O [AHB-tetradeoxyKMB]
**Result** 25

**Query** Given CNC[C@@H]1CC[C@@H](N)[C@@H](O[C@H]2C[C@@H](O[C@H]3O[C@H](CO)[C@@H](O)[C@H](N)[C@H]3O)[C@H](NC(=O)[C@@H](O)CCCN)C[C@@H]2N)O1 [AHV-trideoxyMKMB] , respond with its MIC.
**Result** 25

**Query** Give the reported MIC for this compound. CNC[C@@H]1CC[C@@H](N)[C@@H](O[C@H]2C[C@@H](O[C@H]3O[C@H](CO)[C@@H](O)[C@H](N)[C@H]3O)[C@H](NC(=O)[C@@H](O)CCN)C[C@@H]2N)O1 [AHB-trideoxyMKMB]
**Result** 6.25

**Query** Could you please provide reported MIC for NCC[C@H](O)C(=O)N[C@@H]1C[C@H](N)[C@@H](O[C@H]2O[C@H](CN)CC[C@H]2N)[C@H](O)[C@H]1O[C@H]1O[C@H](CO)[C@@H](O)[C@H](N)[C@H]1O [Habekacin, reference compound] ? Thanks!
**Result** 25

**Query** Please report the measured MIC for NCC(O)C(=O)N[C@@H]1C[C@H](N)[C@@H](O[C@H]2O[C@H](CN)CC[C@H]2N)C[C@H]1O[C@H]1O[C@H](CO)[C@@H](O)[C@H](N)[C@H]1O (stereo partly drawn) [AHP-trideoxyKMB]
**Result** 25

* * *

System: Escherichia coli NIHJ
Assay: Minimum inhibitory concentration, serial dilution on nutrient agar
Assay type: cell-based
Conditions: nutrient agar, 37° C., 18 hours incubation, read-out: MIC
observation_type: MIC (µg/mL)
Your answer should be a plain number; it is taken to be in µg/mL.

Look over these answered cases.
compound: CNC[C@@H]1CC[C@@H](N)[C@@H](O[C@H]2C[C@@H](O[C@H]3O[C@H](CO)[C@@H](O)[C@H](N)[C@H]3O)[C@H](NC(=O)[C@@H](O)CCN)C[C@@H]2N)O1
subject_of_test: Escherichia coli NIHJ
quantity_unit: µg/mL
MIC: 0.78

compound: C[C@H]1O[C@H](O[C@@H]2C[C@H](O[C@H]3O[C@H](CN)CC[C@H]3N)[C@@H](N)C[C@H]2NC(=O)[C@@H](O)CCN)[C@H](O)[C@@H](N)[C@@H]1O
subject_of_test: Escherichia coli NIHJ
quantity_unit: µg/mL
MIC: 0.78

compound: C[C@H]1O[C@H](O[C@@H]2C[C@H](O[C@H]3O[C@H](CN)CC[C@H]3N)[C@@H](N)C[C@H]2N)[C@H](O)[C@@H](N)[C@@H]1O
subject_of_test: Escherichia coli NIHJ
quantity_unit: µg/mL
MIC: 6.25

**Query** Please indicate recorded MIC of NCC[C@H](O)C(=O)N[C@@H]1C[C@H](N)[C@@H](O[C@H]2O[C@H](CN)CC[C@H]2N)C[C@H]1O[C@H]1O[C@H](CO)[C@@H](O)[C@H](N)[C@H]1O measured with Escherichia coli NIHJ.
**Result** 0.78

**Query** Quote Escherichia coli NIHJ MIC for entry CNC[C@@H]1CC[C@@H](N)[C@@H](O[C@H]2C[C@@H](O[C@H]3O[C@H](CO)[C@@H](O)[C@H](N)[C@H]3O)[C@H](N)C[C@@H]2N)O1 .
**Result** 12.5

**Query** Using Escherichia coli NIHJ as the test system, report measured MIC of NCC[C@H](O)C(=O)N[C@@H]1C[C@H](N)[C@@H](O[C@H]2O[C@H](CN)CC[C@H]2N)[C@H](O)[C@H]1O[C@H]1O[C@H](CO)[C@@H](O)[C@H](N)[C@H]1O [Habekacin, reference compound] .
**Result** 3.13

**Query** Tell me MIC of NCC(O)C(=O)N[C@@H]1C[C@H](N)[C@@H](O[C@H]2O[C@H](CN)CC[C@H]2N)C[C@H]1O[C@H]1O[C@H](CO)[C@@H](O)[C@H](N)[C@H]1O (stereo partly shown) when tested on Escherichia coli NIHJ.
**Result** 1.56

Data origin: patent US4410516A
